Reference source for all entries: PubChem BioAssay (NCI)

Test system: CAKI-1 renal
Experiment: NCI tumour cell line growth inhibition, 48 h; in the data active = GI50 below about 0.43 µM; inactive = the rest
Pick one and only one: active, inactive

# Molecule, Category
data = [
    ("O=C1/C(=C/c2ccccc2[N+](=O)[O-])Cc2ccccc21", "inactive"),
]

Query: How did this test come out for CCOc1ccccc1C(=O)N1CCN(c2cc(Cl)cc(Cl)c2)CC1 ?
Response: active

Query: How did this test come out for C[C@@H]1CN(Cc2ccc(F)cc2)[C@@H](C)CN1C(=O)c1cc2c(C(=O)C(=O)N(C)C)cn(C)c2cc1Cl ?
Response: inactive

Query: How did this test come out for O=c1[nH]c(=O)n(C2CC(O)C(COP(=O)(OCc3ccc([N+](=O)[O-])o3)N(CCCCCl)CC(O)CO)O2)cc1F (centres undefined) ?
Response: active

Query: How did this test come out for COc1cc2nc(N3CCCC3)nc(NCCc3ccccc3)c2cc1OC ?
Response: inactive

Query: How did this test come out for COc1cccc(OC(=O)c2ccc(C(F)(F)F)nc2Nc2cc(Cl)ccc2C)c1 ?
Response: inactive

Query: How did this test come out for CN(C)CCCn1c(=O)c2ccccc2c2ccccc21 ?
Response: inactive

Query: How did this test come out for COc1ccc(-c2[nH]c3ccccc3c2-c2ccc(OC)cc2)cc1 ?
Response: inactive

Query: How did this test come out for O=C(OCc1ccc2ccccc2n1)c1cn(C2CC2)c2cc(N3CCN(Cc4ccc5ccccc5n4)CC3)c(F)cc2c1=O ?
Response: inactive

Query: How did this test come out for CNCCCNCCCCNCCCN1C(=O)c2ccc3c4c(ccc(c24)C1=O)C(=O)N(CCCNCc1ccccc1OC)C3=O ?
Response: inactive

Query: How did this test come out for CC1=C2[C@@H](CC1)[C@]1(C)O[C@@](c3ccccc3)(C[C@H]1OC(=O)CO)[C@H]2OC(=O)/C=C/c1ccccc1 ?
Response: inactive

* * *

System: HCT-116 colon
Test: NCI tumour cell line growth inhibition, 48 h
Property: TGI

Example entries begin here.
# Molecule, TGI
rows = [
    ("CCCCCCCOc1ccc(/C=C\\c2cc[n+](CCCCCCCC[n+]3ccc(/C=C\\c4ccc(OCCCCCCC)cc4)cc3)cc2)cc1", "26.5 µM"),
    ("CC1=NN(C(=O)c2ccncc2)C(=O)C1", "> 100 µM"),
]

For each listed entry, give its TGI.
1. C=CCC1(OCc2ccccc2)C(=O)C(=O)OC1C1COC(C)(C)O1 (centres undefined)
2. CCCN(CCS(C)(=O)=O)Cc1ccc(-c2ccc3ncnc(Nc4ccc(OCc5cccc(F)c5)c(Cl)c4)c3c2)o1

Response:
1: > 100 µM; 2: > 25 µM

* * *

Test system: A498 renal
Assay: NCI tumour cell line growth inhibition, 48 h
Answer each item with its documented TGI.
Numbers only, in µM.

# Compound String, Property, Numeric Readout
rows = [
    ("O=C(CCl)NNC1=Nc2ccc(Cl)cc2SC1", "TGI", 35.1),
]

Please turn your attention to the following entry.
// TGI lookup, compound = c1cnn2ncc(-c3ccnc(NCCCN4CCOCC4)n3)c2c1 , result: 12.2

* * *

Tested on: MDA-MB-231 breast
Assay: NCI tumour cell line growth inhibition, 48 h
Answer each item with its documented TGI.
Give bare numbers, in µM.

# Molecule, Property, Numeric Readout
records = [
    ("CSc1nc2c(c(=O)[nH]1)N=C(c1ccc([N+](=O)[O-])cc1)CC(c1ccccc1)N2 (centres undefined)", "TGI", 78.8),
    ("CC1=C2[C@@H](CC1)[C@]1(C)O[C@@](c3ccccc3)(C[C@H]1OC(=O)CO)[C@H]2OC(=O)/C=C/c1ccccc1", "TGI", 49.5),
]

Please turn your attention to the following entry.
// TGI lookup, molecule = CC(C)C[C@H](NC(=O)CNC(=O)c1cc(Cl)ccc1Cl)B1OC(=O)CC(CC(=O)O)(C(=O)O)O1 (some centres undefined) , result: 0.485
